# experimental.details: Confirmation assay for measurement of the activity of small molecule inhibitors on Zika virus induced Caspase-3 activity in human astrocytoma cells
# assay.setup: SNB-19 ZIKV-induced caspase-3/7, luminescence, 6 h; series mostly up to 46.1 µM
Records with an inconclusive call do not appear. Active and inactive are the calls of the source. Calls come from the whole dose curve; as a rule, active = well fitted inhibition curve with a large enough effect; inconclusive = small, poorly fitted or top-dose-only effect; inactive = no such curve, though single readings can be large or run the other way.
property: Potency

* CC(C)N[C@@H]1CCn2c(=O)[nH]c3cccc(c32)[C@@H]1O | inactive
* CC(C)[C@H]1C(=O)N[C@H](CO)Cc2c[nH]c3cccc(c23)N1C | inactive
* O=C1C=CC[C@@H]2[C@H]3CCCN4CCC[C@@H](CN12)[C@@H]34 | inactive
* O=c1c2ccccc2[se]n1-c1ccccc1 | 17.3 µM (active)

// each listed compound needs a value for Potency
1. Oc1ccc([C@H]2CNCc3c2ccc(O)c3O)cc1O
2. O=S(=O)(CC1CS1)c1ccc(Oc2ccccc2)cc1 (stereo unspecified)

1: inactive; 2: inactive
